# EXPERIMENTAL TARGET: T1, ttPOLXc domain (Thermus thermophilus HB8, UniProt Q5SJ64 1-379)
# T1 sequence: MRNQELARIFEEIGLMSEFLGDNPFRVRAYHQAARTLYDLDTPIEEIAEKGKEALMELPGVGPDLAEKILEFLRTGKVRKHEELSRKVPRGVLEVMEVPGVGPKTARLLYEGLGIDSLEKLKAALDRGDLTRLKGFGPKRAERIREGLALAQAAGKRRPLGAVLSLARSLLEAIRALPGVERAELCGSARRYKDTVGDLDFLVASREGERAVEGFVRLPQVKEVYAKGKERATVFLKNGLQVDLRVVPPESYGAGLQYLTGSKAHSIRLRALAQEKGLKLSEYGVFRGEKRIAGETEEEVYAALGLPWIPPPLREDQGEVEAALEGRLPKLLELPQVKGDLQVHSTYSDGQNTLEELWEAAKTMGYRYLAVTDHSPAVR
# METHOD: EMSA
pKd: −log10 of the molar value.
REPORTED PROPERTY: pKd

[[record]]
binder = "21F/40T/18G 1-nt gapped DNA (dsDNA) DNA 1: CACTGGCGGTCGTTCTATCGGGTGTTGCTTTAGTTGTCAT DNA 2: ATGACAACTAAAGCAACACCC DNA 3: ATAGAACGACCGCCAGTG"
experimental_result = 5.19

